Numbers sourced from the RNAGym collection of RNA variant scans (doi:10.7554/elife.80360).

B1: CPEB3 Ribozyme (parent)
chain: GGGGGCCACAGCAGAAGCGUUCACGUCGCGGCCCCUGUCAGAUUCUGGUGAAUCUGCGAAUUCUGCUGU

- Variants of: B1
- PROTOCOL TEXT: self-cleavage, relative activity (ratio to wild type); higher = more cleavage; co-transcriptional
VALUE TYPE: self-cleavage
Number only, no unit.

Example entries begin here.
BIOPOLYMER SEQUENCE: GGGGGCCACAGCCGAAGCGUUCACGUCGCGGCCCCUGUCAGAUUCUGGUGUAUCUGCGAAUUCUGCUGU
self-cleavage: 0.744

BIOPOLYMER SEQUENCE: GGGGCCCACAGCAGAAGCGUUCACGUCGCGGCCCCUGUCAGAUUCUGGUGAAUCUGCGAAUCCUGCUGU
self-cleavage: 0.141

BIOPOLYMER SEQUENCE: GGGGGCCUCAGCAGAAGCGUUCACGUCGCGGCCCCUGUCAGAUUCUGGUGAAUCUGAGAAUUCUGCUGU
self-cleavage: 0.299

BIOPOLYMER SEQUENCE: GGGGGCCACAGCAGAAGCGUCUACGUCGCGGCCCCUGUCAGAUUCUGGUGAAUCUGCGAAUUCUGCUGU
self-cleavage: 0.268

BIOPOLYMER SEQUENCE: GGGGGCCACAGCAGAAACGUUCACGUCGCCGCCCCUGUCAGAUUCUGGUGAAUCUGCGAAUUCUGCUGU
self-cleavage: 0.161

BIOPOLYMER SEQUENCE: GGGGGCCACAGCAGAAGCGUUCACGUCGCGGCCCCUGUCAGAUUCUGGUGAAUCUGCGAAUUCUGGCGU
self-cleavage: 0.914

BIOPOLYMER SEQUENCE: GGGGGCCACAGCAGAAGCGUUCACGUCGCGGCCACUGUCCGAUUCUGGUGAAUCUGCGAAUUCUGCUGU
self-cleavage: 0.291

BIOPOLYMER SEQUENCE: GGGGGCCACAGCAGAAGCAUUAACGUCGCGGCCCCUGUCAGAUUCUGGUGAAUCUGCGAAUUCUGCUGU
self-cleavage: 0.104

BIOPOLYMER SEQUENCE: GGGGGCCACAGCAGAAGCGUUCACGACGCGGCCCCUGUCAGAUUCUGGUGAAUCUGCCAAUUCUGCUGU
self-cleavage: 0.792

BIOPOLYMER SEQUENCE: GGGGGCCACAGCAGAAGCUUUCACGUCGCGGCCCCUGUCAGAUCCUGGUGAAUCUGCGAAUUCUGCUGU
self-cleavage: 0.232

Report self-cleavage for GGGGGCCACAGCAGAAGCGUUCACGUCGCGACCCCUGUCAGAUUCCGGUGAAUCUGCGAAUUCUGCUGU
0.9

Report self-cleavage for GGGGGCCACAGCAGAAGCGUUCUCGUCGCGGCCCCUUUCAGAUUCUGGUGAAUCUGCGAAUUCUGCUGU
0.347
